Catalogue of Ratio values
# target.under.test: Adenosine receptors; A1 & A3 (Rattus norvegicus) (UniProt P25099+P28647)
# Sequence (P25099 whole entry, looked up, one chain of several): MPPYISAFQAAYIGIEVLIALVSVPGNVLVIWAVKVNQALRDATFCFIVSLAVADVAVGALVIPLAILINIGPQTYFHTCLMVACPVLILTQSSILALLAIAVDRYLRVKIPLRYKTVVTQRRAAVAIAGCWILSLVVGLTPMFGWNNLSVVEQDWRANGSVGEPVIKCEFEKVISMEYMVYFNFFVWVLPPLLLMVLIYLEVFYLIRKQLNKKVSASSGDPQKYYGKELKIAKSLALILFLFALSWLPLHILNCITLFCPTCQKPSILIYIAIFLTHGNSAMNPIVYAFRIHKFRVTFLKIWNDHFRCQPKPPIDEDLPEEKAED
# experimental.protocol: Selectivity for binding affinity towards A1 adenosine receptor in rat brain membrane and rat A3 receptor expressed in CHO cells.
# Assay type: cell-based
Answer with a bare number; do not write a unit.

[[record]]
smiles_record = "CCNC(=O)[C@H]1O[C@@H](n2cnc3c(NC(=O)NCc4ccco4)ncnc32)[C@H](O)[C@@H]1O"
target_under_test = "Adenosine receptors; A1 & A3 (Rattus norvegicus) (UniProt P25099+P28647)"
measured_result = 0.58


What is its Ratio for Adenosine receptors; A1 & A3 (Rattus norvegicus) (UniProt P25099+P28647)? Entry: CCNC(=O)[C@H]1O[C@@H](n2cnc3c(NC(=O)Nc4cccc(Cl)c4)nc(I)nc32)[C@H](O)[C@@H]1O 0.33

// map CCNC(=O)[C@H]1O[C@@H](n2cnc3c(NC(=O)Nc4ccc(OC)cc4)nc(I)nc32)[C@H](O)[C@@H]1O to recorded Ratio (system: Adenosine receptors; A1 & A3 (Rattus norvegicus) (UniProt P25099+P28647)) 0.12

Fill in the recorded Ratio for this compound, with Adenosine receptors; A1 & A3 (Rattus norvegicus) (UniProt P25099+P28647) as test system: CCNC(=O)[C@H]1O[C@@H](n2cnc3c(NC(=O)Cc4ccc(Cl)cc4Cl)ncnc32)[C@H](O)[C@@H]1O 0.095

Kindly state the measured Ratio obtained for CCNC(=O)[C@H]1O[C@@H](n2cnc3c(NC(=O)c4ccc(-c5ccccc5)cc4)ncnc32)[C@H](O)[C@@H]1O with Adenosine receptors; A1 & A3 (Rattus norvegicus) (UniProt P25099+P28647). 0.006

Give Adenosine receptors; A1 & A3 (Rattus norvegicus) (UniProt P25099+P28647) Ratio for CCNC(=O)[C@H]1O[C@@H](n2cnc3c(N(C(=O)Nc4ccc(Cl)cn4)C(=O)Nc4ccc(Cl)cn4)ncnc32)[C@H](O)[C@@H]1O 0.13

API: value(readout= Ratio, system= Adenosine receptors; A1 & A3 (Rattus norvegicus) (UniProt P25099+P28647), query= CCNC(=O)[C@H]1O[C@@H](n2cnc3c(NC(=O)Nc4ccc(C(C)=O)cc4)ncnc32)[C@H](O)[C@@H]1O ) 3.5

Tell me reported Ratio for CCNC(=O)[C@H]1O[C@@H](n2cnc3c(NC(=O)Nc4cccc(Cl)c4)nc(C#Cc4ccccc4)nc32)[C@H](O)[C@@H]1O , tested with Adenosine receptors; A1 & A3 (Rattus norvegicus) (UniProt P25099+P28647). 2.1

Record CCCCC#Cc1nc(NC(=O)Nc2cccc(Cl)c2)c2ncn([C@@H]3O[C@H](C(=O)NCC)[C@@H](O)[C@H]3O)c2n1 : what is its Ratio with Adenosine receptors; A1 & A3 (Rattus norvegicus) (UniProt P25099+P28647)? 3.5

* * *

Target sequence: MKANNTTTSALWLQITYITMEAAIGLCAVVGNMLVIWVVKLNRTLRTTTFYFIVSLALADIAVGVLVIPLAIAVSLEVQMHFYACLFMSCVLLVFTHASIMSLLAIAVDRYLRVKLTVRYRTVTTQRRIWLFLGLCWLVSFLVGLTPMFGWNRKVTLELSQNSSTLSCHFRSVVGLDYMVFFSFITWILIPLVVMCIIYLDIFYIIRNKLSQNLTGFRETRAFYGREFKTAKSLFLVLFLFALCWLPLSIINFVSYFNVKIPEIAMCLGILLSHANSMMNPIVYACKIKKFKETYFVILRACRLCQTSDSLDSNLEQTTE
value.kind: Ki (nM)
Respond numerically; units are nM and should not be typed.

Reference set, count: 8
[[record]]
molecule = "CCNC(=O)[C@H]1O[C@@H](n2cnc3c(NC(=O)Nc4cccc(Cl)c4)nc(Cl)nc32)[C@H](O)[C@@H]1O"
value_kind = "Ki"
measured_result = 77.6

[[record]]
molecule = "CCNC(=O)[C@H]1O[C@@H](n2cnc3c(NC(=O)Nc4ccc(OC)cc4)nc(C#CC(O)c4ccccc4)nc32)[C@H](O)[C@@H]1O (some centres undefined)"
value_kind = "Ki"
measured_result = 324

[[record]]
molecule = "CCNC(=O)[C@H]1O[C@@H](n2cnc3c(NC(=O)Nc4ccc(OC)cc4)nc(C#Cc4ccccc4)nc32)[C@H](O)[C@@H]1O"
value_kind = "Ki"
measured_result = 154

[[record]]
molecule = "CCNC(=O)[C@H]1O[C@@H](n2cnc3c(NC(=O)NCCc4ccccc4)ncnc32)[C@H](O)[C@@H]1O"
value_kind = "Ki"
measured_result = 149

[[record]]
molecule = "CCNC(=O)[C@H]1O[C@@H](n2cnc3c(NC(=O)Nc4ccc(NS(=O)(=O)c5ncccn5)cc4)ncnc32)[C@H](O)[C@@H]1O"
value_kind = "Ki"
measured_result = 405

[[record]]
molecule = "CCNC(=O)[C@H]1O[C@@H](n2cnc3c(NC(=O)Nc4ccc(OC)cc4)nc(C#CCCCc4ccccc4)nc32)[C@H](O)[C@@H]1O"
value_kind = "Ki"
measured_result = 89.5

[[record]]
molecule = "CCCCC#Cc1nc(NC(=O)Nc2ccc(OC)cc2)c2ncn([C@@H]3O[C@H](C(=O)NCC)[C@@H](O)[C@H]3O)c2n1"
value_kind = "Ki"
measured_result = 211

[[record]]
molecule = "CCCOc1ccc(NC(=O)Nc2ncnc3c2ncn3C2O[C@H](C(=O)NCC)[C@@H](O)[C@H]2O)cc1 (some centres undefined)"
value_kind = "Ki"
measured_result = 107


As a next step, examine the molecule that follows.
What does the data say about its Ki? Entry: CNC(=O)[C@H]1OC(n2cnc3c(NCc4cccc(I)c4Cl)ncnc32)[C@H](O)[C@@H]1O (some centres undefined) 0.33
